Tested on: P. aeruginosa Δefflux (MexAB-OprM, MexCD-OprJ, MexEF-OprN knocked out)
Experiment: MIC broth microdilution, P. aeruginosa Δefflux strain
Format: cell-based
Conditions: Table 1, MexEF-OprN efflux pumps knocked out
Can you tell me Geometric Mean MIC values, P. aeruginosa Δefflux for the items I'm about to list?
State the result as a value with its unit after it.

Q) Field: Geometric Mean MIC values, P. aeruginosa Δefflux (P. aeruginosa Δefflux (MexAB-OprM, MexCD-OprJ, MexEF-OprN knocked out)). Entry: CCC(N)C1CCC(N)C(OC2C(N)CC(N)C(O)C2OC2OC(CO)C(OC3OC(CN)C(O)C(O)C3N)C2O)O1 (stereo not drawn) [drawing 852]
A) 0.5 µg/mL

Q) # returns recorded Geometric Mean MIC values, P. aeruginosa Δefflux (system: P. aeruginosa Δefflux (MexAB-OprM, MexCD-OprJ, MexEF-OprN knocked out)) for CC(N)C1CCC(N)C(OC2C(N)CC(N)C(O)C2OC2OC(CO)C(OC3OC(CN)C(O)C(O)C3N)C2O)O1 (stereo not drawn) [drawing 850]
A) 0.5 µg/mL

Q) Lookup: Geometric Mean MIC values, P. aeruginosa Δefflux / P. aeruginosa Δefflux (MexAB-OprM, MexCD-OprJ, MexEF-OprN knocked out) / NCC1OC(OC2C(CO)OC(OC3C(O)C(N)CC(N)C3OC3OC(CN)C(O)C(F)C3N)C2O)C(N)C(O)C1O (stereo not drawn) [drawing 853]
A) 0.5 µg/mL

====

Field: pIC50. Provide a value for each of the compounds that follow.
Tested on: translation
Assay: Translation Inhibition Assay
Format: biochemical
Settings: Table 2
Excerpt: Biological Example 2: Translation Inhibition Assay
Would you please state pIC50, meaning minus log10 of the concentration in mol/L, as a bare number?

Q) Recorded pIC50 for NCC1CCC(N)C(OC2C(N)CC(N)C(O)C2OC2OC(CO)C(OC3OC(CN)C(O)C(O)C3N)C2O)O1 (centres unmarked) [drawing 872, reference compound] , please?
A) 8.00

Q) If you can, please state the reported pIC50 value of NCC1OC(OC2C(CO)OC(OC3C(O)C(N)CC(N)C3OC3OC(CN)C(O)C(F)C3N)C2O)C(N)C(O)C1O (centres unmarked) [drawing 884] .
A) 7.00

Q) What value of pIC50 has been recorded for this entry: CC(N)C1CCC(N)C(OC2C(N)CC(N)C(O)C2OC2OC(CO)C(OC3OC(CN)C(O)C(O)C3N)C2O)O1 (centres unmarked) [drawing 874]
A) 7.85

Q) Requested field: pIC50. Item: CCC(N)C1CCC(N)C(OC2C(N)CC(N)C(O)C2OC2OC(CO)C(OC3OC(CN)C(O)C(O)C3N)C2O)O1 (centres unmarked) [drawing 877]
A) 7.59

Q) What pIC50 value was documented for this compound, NC[C@@H]1O[C@H](O[C@H]2[C@@H](O)[C@H](O[C@@H]3[C@@H](O)[C@H](N)C[C@H](N)[C@H]3O[C@H]3O[C@H](CN)[C@@H](O)[C@H](O)[C@H]3N)O[C@@H]2CO)[C@H](N)[C@@H](O)[C@@H]1O [drawing 881, neomycin, reference compound] ?
A) 8.14

Q) I am curious: what pIC50 value has been reported for CCC(N)C1CCC(N)C(OC2C(N)CC(N)C(O)C2OC2OC(CO)C(OC3OC(CN)C(O)C(O)C3N)C2O)O1 (centres unmarked) [drawing 876] ?
A) 7.49

Q) Record request: pIC50 value, item CC(N)C1CCC(N)C(OC2C(N)CC(N)C(O)C2OC2OC(CO)C(OC3OC(CN)C(O)C(O)C3N)C2O)O1 (centres unmarked) [drawing 873]
A) 7.92

Q) Given the compound "NC[C@@H]1O[C@H](O[C@H]2[C@@H](O)[C@H](O[C@@H]3[C@@H](O)[C@H](N)C[C@H](N)[C@H]3O[C@H]3O[C@H](CN)[C@H](O)[C@H](F)[C@H]3N)O[C@@H]2CO)[C@H](N)[C@@H](O)[C@@H]1O" , what is its reported pIC50?
A) 7.74

Q) Could you share which pIC50 value was measured for "NC[C@@H]1O[C@H](O[C@H]2[C@@H](O)[C@H](O[C@@H]3[C@@H](O)[C@H](N)C[C@H](N)[C@H]3O[C@H]3O[C@H](CN)[C@@H](O)C(F)(F)[C@H]3N)O[C@@H]2CO)[C@H](N)[C@@H](O)[C@@H]1O" ?
A) 7.21

Q) Can you share its pIC50? I mean this compound: NCC1OC(OC2C(CO)OC(OC3C(O)C(N)CC(N)C3OC3OC(C4(N)CC4)CCC3N)C2O)C(N)C(O)C1O (centres unmarked) [drawing 875]
A) 8.12

Q) Need pIC50 of NCC1OC(OC2C(N)CC(N)C(O)C2OC2OC(CO)C(OC3OC(CN)C(O)C(O)C3N)C2O)C(N)CC1O (centres unmarked) [drawing 880, reference compound] , thanks.
A) 8.07

Q) # get_value(readout='pIC50', item= NCC1OC(OC2C(CO)OC(OC3C(O)C(N)CC(N)C3OC3OC(CN)C(O)C(F)C3O)C2O)C(N)C(O)C1O (centres unmarked) [drawing 883] )
A) 7.62

Q) What does the data say about its pIC50? Entry: "NC[C@@H]1O[C@H](O[C@H]2[C@@H](O)[C@H](O[C@@H]3[C@@H](O)[C@H](N)C[C@H](N)[C@H]3O[C@H]3O[C@H](CN)C(F)(F)[C@H](O)[C@H]3N)O[C@@H]2CO)[C@H](N)[C@@H](O)[C@@H]1O"
A) 7.89

Q) pIC50 lookup needed for NCC1OC(OC2C(CO)OC(OC3C(O)C(N)CC(N)C3OC3OC(CN)C(O)C(F)C3N)C2O)C(N)C(O)C1O (centres unmarked) [drawing 882] , thanks.
A) 8.00

====

System: P. aeruginosa efflux parent
Experiment: MIC broth microdilution, P. aeruginosa efflux parent strain
Type: cell-based
Details: Table 1; geometric mean
Consider the following compounds; for each one, report its Geometric Mean MIC values, P. aeruginosa efflux parent.
Record the result as number plus unit.

Q) So what's the measured Geometric Mean MIC values, P. aeruginosa efflux parent for this one? CCC(N)C1CCC(N)C(OC2C(N)CC(N)C(O)C2OC2OC(CO)C(OC3OC(CN)C(O)C(O)C3N)C2O)O1 (stereo not drawn) [drawing 851]
A) 2 µg/mL

Q) So what's the measured Geometric Mean MIC values, P. aeruginosa efflux parent for this one? CC(N)C1CCC(N)C(OC2C(N)CC(N)C(O)C2OC2OC(CO)C(OC3OC(CN)C(O)C(O)C3N)C2O)O1 (stereo not drawn) [drawing 850]
A) 4 µg/mL

Q) May I ask what Geometric Mean MIC values, P. aeruginosa efflux parent has been recorded for CC(N)C1CCC(N)C(OC2C(N)CC(N)C(O)C2OC2OC(CO)C(OC3OC(CN)C(O)C(O)C3N)C2O)O1 (stereo not drawn) [drawing 849] ?
A) 1 µg/mL

====

Test system: E. coli ATCC 25922
Assay: Minimum inhibitory concentration (broth microdilution, CLSI), E. coli ATCC 25922
Assay type: cell-based
Conditions: Table 2; geometric mean
measuredMetric: Geometric Mean MIC values, E. coli ATCC 25922

Q) Any idea what Geometric Mean MIC values, E. coli ATCC 25922 was measured for NCC1OC(OC2C(CO)OC(OC3C(O)C(N)CC(N)C3OC3OC(CN)C(O)C(F)C3N)C2O)C(N)C(O)C1O (centres unmarked) [drawing 868] ?
A) 16 mg/L

Q) I would be grateful if you could share the reported Geometric Mean MIC values, E. coli ATCC 25922 for NCC1OC(OC2C(CO)OC(OC3C(O)C(N)CC(N)C3OC3OC(CN)C(O)C(F)C3N)C2O)C(N)C(O)C1O (centres unmarked) [drawing 869] .
A) 1 mg/L

Q) Which value of Geometric Mean MIC values, E. coli ATCC 25922 has been reported for CCC(N)C1CCC(N)C(OC2C(N)CC(N)C(O)C2OC2OC(CO)C(OC3OC(CN)C(O)C(O)C3N)C2O)O1 (centres unmarked) [drawing 861] in the records?
A) 1.4 mg/L

Q) Entry NCC1OC(OC2C(CO)OC(OC3C(O)C(N)CC(N)C3OC3OC(CN)C(O)C(F)C3N)C2O)C(N)C(O)C1O (centres unmarked) [drawing 866] : reported Geometric Mean MIC values, E. coli ATCC 25922 = ?
A) 1.3 mg/L

Q) Name the recorded Geometric Mean MIC values, E. coli ATCC 25922 for CC(N)C1CCC(N)C(OC2C(N)CC(N)C(O)C2OC2OC(CO)C(OC3OC(CN)C(O)C(O)C3N)C2O)O1 (centres unmarked) [drawing 858] .
A) 2 mg/L

Q) Recorded Geometric Mean MIC values, E. coli ATCC 25922 of NCC1OC(OC2C(N)CC(N)C(O)C2OC2OC(CO)C(OC3OC(CN)C(O)C(O)C3N)C2O)C(N)CC1O (centres unmarked) [drawing 864, reference compound] , please.
A) 0.71 mg/L

Q) Which Geometric Mean MIC values, E. coli ATCC 25922 reading was recorded for the compound NCC1CCC(N)C(OC2C(N)CC(N)C(O)C2OC2OC(CO)C(OC3OC(CN)C(O)C(O)C3N)C2O)O1 (centres unmarked) [drawing 856, reference compound] ?
A) 1.1 mg/L

Q) // returns reported Geometric Mean MIC values, E. coli ATCC 25922 for input NCC1OC(OC2C(CO)OC(OC3C(O)C(N)CC(N)C3OC3OC(CN)C(O)C(F)C3O)C2O)C(N)C(O)C1O (centres unmarked) [drawing 867]
A) 2 mg/L

Q) GET /values?readout=Geometric Mean MIC values, E. coli ATCC 25922&item= NCC1OC(OC2C(CO)OC(OC3C(O)C(N)CC(N)C3OC3OC(CN)C(F)(F)C(O)C3N)C2O)C(N)C(O)C1O (centres unmarked)
A) 2 mg/L

Q) Given the compound NCC1OC(OC2C(CO)OC(OC3C(O)C(N)CC(N)C3OC3OC(CN)C(O)C(F)(F)C3N)C2O)C(N)C(O)C1O (centres unmarked) [drawing 870] , what is its reported Geometric Mean MIC values, E. coli ATCC 25922?
A) 5 mg/L

Q) # input compound: CCC(N)C1CCC(N)C(OC2C(N)CC(N)C(O)C2OC2OC(CO)C(OC3OC(CN)C(O)C(O)C3N)C2O)O1 (centres unmarked) [drawing 860] ; wanted: its Geometric Mean MIC values, E. coli ATCC 25922
A) 2 mg/L

Q) For NC[C@@H]1O[C@H](O[C@H]2[C@@H](O)[C@H](O[C@@H]3[C@@H](O)[C@H](N)C[C@H](N)[C@H]3O[C@H]3O[C@H](CN)[C@@H](O)[C@H](O)[C@H]3N)O[C@@H]2CO)[C@H](N)[C@@H](O)[C@@H]1O [NEO, neomycin B, reference compound] , what is its reported Geometric Mean MIC values, E. coli ATCC 25922?
A) 1 mg/L

Q) What does the data say about its Geometric Mean MIC values, E. coli ATCC 25922? Entry: CC(N)C1CCC(N)C(OC2C(N)CC(N)C(O)C2OC2OC(CO)C(OC3OC(CN)C(O)C(O)C3N)C2O)O1 (centres unmarked) [drawing 857]
A) 1.4 mg/L

Q) For the compound NCC1OC(OC2C(CO)OC(OC3C(O)C(N)CC(N)C3OC3OC(C4(N)CC4)CCC3N)C2O)C(N)C(O)C1O (centres unmarked) [drawing 859] , what Geometric Mean MIC values, E. coli ATCC 25922 is on record?
A) 1 mg/L

Origin of measurements: patent US11414450B1
